Study System: Prostaglandin G/H synthase 1 (Homo sapiens) (UniProt P23219)
Sequence (P23219 whole entry): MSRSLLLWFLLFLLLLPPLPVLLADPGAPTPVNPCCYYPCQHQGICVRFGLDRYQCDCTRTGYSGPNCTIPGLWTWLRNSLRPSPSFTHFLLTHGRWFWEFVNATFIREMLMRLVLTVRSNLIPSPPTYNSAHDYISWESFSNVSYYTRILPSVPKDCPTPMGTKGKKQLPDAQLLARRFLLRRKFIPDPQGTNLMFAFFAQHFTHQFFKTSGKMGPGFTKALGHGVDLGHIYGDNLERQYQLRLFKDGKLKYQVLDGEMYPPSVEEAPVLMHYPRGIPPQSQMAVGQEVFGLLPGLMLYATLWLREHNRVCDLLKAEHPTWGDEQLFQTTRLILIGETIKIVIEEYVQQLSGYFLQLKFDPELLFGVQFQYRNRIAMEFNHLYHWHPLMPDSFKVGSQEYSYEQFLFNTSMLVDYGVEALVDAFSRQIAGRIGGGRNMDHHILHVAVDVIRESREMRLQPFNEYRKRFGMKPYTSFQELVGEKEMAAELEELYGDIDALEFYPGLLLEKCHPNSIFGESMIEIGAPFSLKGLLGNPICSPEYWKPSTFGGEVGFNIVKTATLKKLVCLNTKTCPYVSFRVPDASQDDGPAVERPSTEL
Method Summary: Percent inhibition of arachidonic acid induced TXB2 generation in isolated human platelets (Prostaglandin G/H synthase 1 cell assay) at 10 uM
Type: functional
Measurement Label: inhibition (%)

> print(dat)
                                chem.smiles  measurement.units  numeric.value
1  COC(=O)c1cc2cc(S(C)(=O)=O)ccc2n1Cc1ccc(Br)cc1                  %             25
2  COC(=O)c1cc2cc(S(C)(=O)=O)ccc2n1Cc1ccc(OC)cc1                  %             15

I = COC(=O)c1cc2cc(S(C)(=O)=O)ccc2n1Cc1ccc([N+](=O)[O-])cc1
II = COC(=O)c1cc2cc(S(C)(=O)=O)ccc2n1Cc1ccc(Cl)cc1
III = CS(=O)(=O)c1ccc2c(c1)cc(C(=O)O)n2Cc1ccc(Cl)cc1
Arrange items by their inhibition values in increasing order. To answer, write out the labels according to the requested order. I, II, III

----------
Study System: Prostaglandin G/H synthase 2 (Homo sapiens, UniProt P35354)
Sequence (P35354 whole entry): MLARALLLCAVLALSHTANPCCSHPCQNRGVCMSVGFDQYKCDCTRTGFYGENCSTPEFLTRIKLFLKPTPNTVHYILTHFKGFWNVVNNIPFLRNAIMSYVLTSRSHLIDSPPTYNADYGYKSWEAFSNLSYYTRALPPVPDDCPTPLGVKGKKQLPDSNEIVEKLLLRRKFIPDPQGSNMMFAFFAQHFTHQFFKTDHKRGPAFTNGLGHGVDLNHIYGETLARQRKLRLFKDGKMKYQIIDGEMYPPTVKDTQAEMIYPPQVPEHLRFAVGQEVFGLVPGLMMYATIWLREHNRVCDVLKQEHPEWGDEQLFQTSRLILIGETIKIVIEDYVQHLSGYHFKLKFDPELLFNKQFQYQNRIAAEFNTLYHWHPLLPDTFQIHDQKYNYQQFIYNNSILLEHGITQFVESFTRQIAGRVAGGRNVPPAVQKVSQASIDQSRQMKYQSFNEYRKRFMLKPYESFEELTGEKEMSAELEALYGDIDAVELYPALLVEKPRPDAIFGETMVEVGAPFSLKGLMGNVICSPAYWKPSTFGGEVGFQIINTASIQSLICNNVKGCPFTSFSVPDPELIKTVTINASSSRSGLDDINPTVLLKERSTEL
Method Summary: Inhibition of PGE-2 generation in LPS-stimulated human monocytes (Prostaglandin G/H synthase 2 assay)
Measurement Label: IC50 (µM)
State the answer as a number, implicitly in µM.

Which IC50 reading was recorded for the molecule COC(=O)c1cc2cc(S(C)(=O)=O)ccc2n1C(=O)c1ccc(Cl)cc1 ? 0.73
